Taken from patent US20120040965A1.

Test system: cytosolic calcium ions concentration in cells
Test: Histamine-induced calcium streams in SK-N-SH cells, Phase 2 (acceleration of cytosolic calcium removal)
Type: cell-based
Details: Homo sapiens, Phase 2: acceleration of intraplasmatic calcium removal, histamine 10 μM, read-out: pIC50 Phase 2 (converted)
Record form. Attribute: IC50. Fill in for each entry.
Report only the number, with the unit nM understood.

I would be grateful if you could share the reported IC50 for Cc1ccc2c(c1)[C@@H]1CN(C)CCC[C@H]1N2Cc1ccncc1 (relative stereo) . 5010

And then Cc1ccc2c(c1)[C@@H]1CN(C)CCC[C@H]1N2CCc1cccnc1 (relative stereo) , what is it? 2510

And then `Cc1ccc2c(c1)c1c(n2CCc2ccccn2)CCCN(C)C1` , what is it? 3160

And then Cc1ccc2c(c1)[C@@H]1CN(C)CCC[C@H]1N2Cc1ccccn1 (relative stereo) , what is it? 1580

And then Cc1ccc2c(c1)[C@@H]1CN(C)CCC[C@H]1N2Cc1ccccc1 (relative stereo) , what is it? 631

And then Cc1ccc2c(c1)[C@@H]1CN(C)CCC[C@H]1N2CCc1ccccc1 (relative stereo) , what is it? 2000

And then `Cc1ccc2c(c1)c1c(n2CCc2cccnc2)CCCN(C)C1` , what is it? 3160

And then `Cc1ccc2c(c1)c1c(n2CCc2ccc(C)nc2)CCCN(C)C1` , what is it? 1580

And then Cc1ccc2c(c1)[C@@H]1CN(C)CCC[C@H]1N2Cc1cccnc1 (relative stereo) , what is it? 1580

And then `Cc1ccc2c(c1)c1c(n2CCc2ccncc2)CCCN(C)C1` , what is it? 1260

And then Cc1ccc2c(c1)[C@@H]1CN(C)CCC[C@H]1N2CCc1ccccn1 (relative stereo) , what is it? 2510

And then CN1CCC[C@@H]2[C@@H](C1)c1cc(-c3ccncc3)ccc1N2CCc1cccnc1 (relative stereo) , what is it? 1000

And then CN1CCC[C@@H]2[C@@H](C1)c1cc(F)ccc1N2CCc1cccnc1 (relative stereo) , what is it? 631

And then Cc1ccc2c(c1)[C@@H]1CN(C)CCC[C@H]1N2CCc1ccncc1 (relative stereo) , what is it? 1000

And then Cc1ccc2c(c1)[C@@H]1CN(C)CCC[C@H]1N2CCc1ccc(C)nc1 (relative stereo) , what is it? 1000

* * *

Target: histamine H1 receptor (Homo sapiens, UniProt P35367)
Construct: host or cells: SK-N-SH
Sequence (P35367 whole entry): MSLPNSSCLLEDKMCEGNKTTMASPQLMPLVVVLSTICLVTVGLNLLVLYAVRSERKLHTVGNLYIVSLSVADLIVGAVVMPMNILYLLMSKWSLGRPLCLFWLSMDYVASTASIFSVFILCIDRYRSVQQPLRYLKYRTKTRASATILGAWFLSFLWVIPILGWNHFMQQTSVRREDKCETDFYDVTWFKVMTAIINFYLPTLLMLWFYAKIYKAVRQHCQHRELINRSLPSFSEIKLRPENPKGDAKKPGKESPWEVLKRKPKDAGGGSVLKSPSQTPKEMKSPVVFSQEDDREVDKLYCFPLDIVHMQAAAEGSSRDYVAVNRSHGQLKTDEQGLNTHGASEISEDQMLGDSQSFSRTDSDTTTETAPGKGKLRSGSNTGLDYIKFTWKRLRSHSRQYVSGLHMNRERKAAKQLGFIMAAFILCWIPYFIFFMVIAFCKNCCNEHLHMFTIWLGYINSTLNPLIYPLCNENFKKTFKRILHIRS
Test: Histamine-induced calcium streams in SK-N-SH cells, Phase 1 (H1 receptor antagonism)
Assay type: cell-based
Conditions: Phase 1: compounds prevent calcium ions entry in cells by antagonistic action on H1-receptors, histamine 10 μM, read-out: pIC50 Phase 1 (converted)
Measurement Name: IC50 (nM)
Report only the number, with the unit nM understood.

I would be grateful if you could share the reported IC50 for CN1CCC[C@@H]2[C@@H](C1)c1cc(-c3ccncc3)ccc1N2CCc1cccnc1 (relative stereo) . 251

And then Cc1ccc2c(c1)[C@@H]1CN(C)CCC[C@H]1N2CCc1ccccc1 (relative stereo) , what is it? 158

And then `Cc1ccc2c(c1)c1c(n2CCc2cccnc2)CCCN(C)C1` , what is it? 501

* * *

Target: histamine H1 receptor (Homo sapiens, UniProt P35367)
Construct: host or cells: SK-N-SH
Test: Histamine-induced calcium streams in SK-N-SH cells, Phase 1 (H1 receptor antagonism)
Format: cell-based
Details: Phase 1: compounds prevent calcium ions entry in cells by antagonistic action on H1-receptors, histamine 10 μM, read-out: pIC50 Phase 1 (converted)
Measurement Name: IC50

I would be grateful if you could share the reported IC50 for Cc1ccc2c(c1)[C@@H]1CN(C)CCC[C@H]1N2Cc1ccc(C(=O)O)cc1 (relative stereo) . > 100000 nM

And then Cc1ccc2c(c1)[C@@H]1CN(C)CCC[C@H]1N2Cc1ccccn1 (relative stereo) , what is it? 631 nM

And then Cc1ccc2c(c1)[C@@H]1CN(C)CCC[C@H]1N2Cc1ccccc1 (relative stereo) , what is it? 126 nM

And then `Cc1ccc2c(c1)c1c(n2CCc2ccc(C)nc2)CCCN(C)C1` , what is it? 316 nM

And then Cc1ccc2c(c1)[C@@H]1CN(C)CCC[C@H]1N2C(=O)c1ccccc1 (relative stereo) , what is it? > 100000 nM

And then CN1CCC[C@@H]2[C@@H](C1)c1cc(F)ccc1N2CCc1cccnc1 (relative stereo) , what is it? 126 nM

And then Cc1ccc2c(c1)[C@@H]1CN(C)CCC[C@H]1N2CCc1ccccn1 (relative stereo) , what is it? 1000 nM

And then Cc1ccc2c(c1)[C@@H]1CN(C)CCC[C@H]1N2CCc1ccncc1 (relative stereo) , what is it? 158 nM

And then Cc1ccc2c(c1)[C@@H]1CN(C)CCC[C@H]1N2CCc1cccnc1 (relative stereo) , what is it? 158 nM

And then Cc1ccc2c(c1)[C@@H]1CN(C)CCC[C@H]1N2Cc1ccncc1 (relative stereo) , what is it? 200 nM

And then `Cc1ccc2[nH]c3c(c2c1)CN(C(=O)Nc1ccccc1)CCC3` , what is it? > 100000 nM

And then Cc1ccc2c(c1)[C@@H]1CN(C)CCC[C@H]1N2CCc1ccc(C)nc1 (relative stereo) , what is it? 251 nM

And then `Cc1ccc2c(c1)c1c(n2CCc2ccncc2)CCCN(C)C1` , what is it? 200 nM

And then Cc1ccc2c(c1)[C@@H]1CN(C)CCC[C@H]1N2Cc1cccnc1 (relative stereo) , what is it? 100 nM

And then `Cc1ccc2[nH]c3c(c2c1)CN(S(=O)(=O)c1ccccc1)CCC3` , what is it? > 100000 nM

And then `Cc1ccc2c(c1)c1c(n2CCc2ccccn2)CCCN(C)C1` , what is it? 3160 nM

* * *

Tested on: cytosolic calcium ions concentration in cells
Assay: Histamine-induced calcium streams in SK-N-SH cells, Phase 2 (acceleration of cytosolic calcium removal)
Assay type: cell-based
Details: Homo sapiens, Phase 2: acceleration of intraplasmatic calcium removal, histamine 10 μM, read-out: pIC50 Phase 2 (converted)
Record form. Attribute: IC50. Fill in for each entry.

I would be grateful if you could share the reported IC50 for CC(=O)N1c2ccc(C)cc2[C@@H]2CN(C)CCC[C@H]21 (relative stereo) . > 100 µM

And then `Cc1ccc2[nH]c3c(c2c1)CN(C)CCC3` , what is it? > 100 µM

And then `Cc1ccc2[nH]c3c(c2c1)CN(C(=O)Nc1ccccc1)CCC3` , what is it? > 100 µM

And then `Cc1ccc2[nH]c3c(c2c1)CN(S(=O)(=O)c1ccccc1)CCC3` , what is it? > 100 µM

And then Cc1ccc2c(c1)[C@@H]1CN(C)CCC[C@H]1N2C(=O)c1ccccc1 (relative stereo) , what is it? > 100 µM

And then `Cc1ccc2[nH]c3c(c2c1)CN(C(=O)c1ccccc1)CCC3` , what is it? > 100 µM

And then Cc1ccc2c(c1)[C@@H]1CN(C)CCC[C@H]1N2Cc1ccc(C(=O)O)cc1 (relative stereo) , what is it? > 100 µM

* * *

Target: histamine H1 receptor (Homo sapiens, UniProt P35367)
Construct: host or cells: SK-N-SH
Assay: Histamine-induced calcium streams in SK-N-SH cells, Phase 1 (H1 receptor antagonism)
Type: cell-based
Details: Phase 1: compounds prevent calcium ions entry in cells by antagonistic action on H1-receptors, histamine 10 μM, read-out: pIC50 Phase 1 (converted)
Measurement Name: IC50

I would be grateful if you could share the reported IC50 for `Cc1ccc2[nH]c3c(c2c1)CN(C(=O)c1ccccc1)CCC3` . > 100 µM

And then `Cc1ccc2[nH]c3c(c2c1)CN(C)CCC3` , what is it? > 100 µM

And then CC(=O)N1c2ccc(C)cc2[C@@H]2CN(C)CCC[C@H]21 (relative stereo) , what is it? > 100 µM
